Counter-ions that a name gives are not always drawn.
Examples of molecules with documented melting point follow.
MEASURED_PARAMETER: melting point

• Cc1cc(C)c(-c2cn(C)c3c(N4CCCCCC4)ncnc23)c(C)c1 = 140 to 142 °C
• CCCCN(CC)c1ncnc2c(-c3c(C)cc(C)cc3C)cn(C)c12 = 126 to 128 °C
• CCCN(CCC)c1ncnc2c(-c3c(C)cc(C)cc3C)cn(C)c12 = 116 to 118 °C
• CCCN(CC1CC1)c1ncnc2c(-c3c(C)cc(C)cc3C)cn(C)c12 (as salt: HCl) = 205 to 207 °C

* * *

# pIC50 annotations
Target protein (sequence): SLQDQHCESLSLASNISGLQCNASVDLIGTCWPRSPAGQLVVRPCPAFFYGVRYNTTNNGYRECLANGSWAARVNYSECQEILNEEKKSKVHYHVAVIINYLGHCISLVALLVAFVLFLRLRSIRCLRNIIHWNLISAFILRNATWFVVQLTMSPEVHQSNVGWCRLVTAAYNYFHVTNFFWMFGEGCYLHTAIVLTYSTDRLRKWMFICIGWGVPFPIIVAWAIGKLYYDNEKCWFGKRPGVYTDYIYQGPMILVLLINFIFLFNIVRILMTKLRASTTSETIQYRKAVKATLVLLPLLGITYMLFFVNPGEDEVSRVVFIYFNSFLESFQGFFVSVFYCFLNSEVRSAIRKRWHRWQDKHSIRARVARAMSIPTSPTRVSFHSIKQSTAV
pIC50: −log10 of the molar value.
MEASURED_PARAMETER: pIC50

* CCCCN(CC)c1ncnc2c(-c3c(C)cc(C)cc3C)cn(C)c12 | 6.30
* CCCN(CC1CC1)c1ncnc2c(-c3c(C)cc(C)cc3C)cn(C)c12 | 6.96

Origin of measurements: patent US6495688B2
